These data points were gathered from patent US20240174690A1.

- Assay info: Caco-2 assay (permeability PappAB, PappBA, efflux ratio)
- Format: in vitro ADME
- Details: human, Caco-2; efflux ratio PappBA/PappAB; 10 μM test compound, pH 7.4; read-out: Caco ER
Readout type: efflux ratio at 90 min, 10 μM

Example results:
Compound	efflux ratio at 90 min, 10 μM
C[C@H](Oc1cc(N2CC3CCC(C2)N3)nc(-c2noc3c2CCC[C@@]32CCCc3sc(N)c(C#N)c32)n1)[C@@H]1CCCN1C [II-34]	37.8
CC(C)N1CCCN(c2cc(-c3ccn(C)n3)nc(-c3noc4c3CCC[C@@]43CCCc4sc(N)c(C#N)c43)n2)[C@@H](C)C1 [II-170]	7

(a) C[C@H](Oc1cc(N2CCN(C)C3(CC3)C2)nc(-c2noc3c2CCC[C@@]32CCCc3sc(N)c(C#N)c32)n1)[C@@H]1CCCN1C [II-171]
(b) C[C@H](Oc1cc(N2CCC[C@@H](O)C2)nc(-c2noc3c2CCC[C@@]32CCCc3sc(N)c(C#N)c32)n1)[C@@H]1CCCN1C [II-59]
Which is greater in efflux ratio at 90 min, 10 μM, the first item a or the second item b ? State your choice using its label.
b

* * *

- Assay info: Solubility measurement (DMSO solution method), McIlvaine buffer pH 4.5 or 6.8
- Type: physicochemical
- Details: aqueous buffer, kinetic from dmso stock; McIlvaine buffer pH 4.5; DMSO stock diluted to 250 μM; 24 h shaking at ambient temperature; read-out: solubility pH 4.5
Readout type: solubility at 24 h (µg/mL)

CC(=O)N1CC=C(c2cc(O[C@@H](C)[C@@H]3CCCN3C)nc(-c3noc4c3CCC[C@@]43CCCc4sc(N)c(C#N)c43)n2)CC1 114

(a) CO[C@H]1CCN(C)[C@@H]1[C@H](C)Oc1cc(-n2ccc(C(=O)N[C@@H](C)c3ccccn3)n2)nc(-c2noc3c2CCC[C@@]32CCCc3sc(N)c(C#N)c32)n1
(b) C[C@H](Oc1cc(-n2ccc(Br)n2)nc(-c2noc3c2CCC[C@@]32CCCc3sc(N)c(C#N)c32)n1)[C@@H]1CCCN1C
(c) C[C@H](Oc1cc(-c2ccncc2)nc(-c2noc3c2CCC[C@@]32CCCc3sc(N)c(C#N)c32)n1)[C@@H]1CCCN1C
Rank the items in ascending order with respect to solubility at 24 h. Answer by listing the labels in the order asked for.
b, c, a
(b: 3 µg/mL, c: 41 µg/mL, a: 94 µg/mL)

* * *

- System: AsPC-1 cells
- Assay info: AsPC-1 CTG proliferation assay (120 h) (pancreatic cancer, G12D)
- Type: cell-based
- Details: Homo sapiens, ASPC1
pIC50: −log10 of the molar value.
Readout type: pIC50

Example results:
C[C@H](Oc1cc(-n2cc3c(n2)CNC3)nc(-c2noc3c2CCC[C@@]32CCCc3sc(N)c(C#N)c32)n1)[C@@H]1C[C@@H](F)CN1C 5.99
CNC(=O)c1ccn(-c2cc(O[C@@H](C)[C@@H]3CCCN3C)nc(-c3noc4c3CCC[C@@]43CCCc4sc(N)c(C#N)c43)n2)n1 5.99
C[C@H](Oc1cc(N2CC3CCC(C2)N3)nc(-c2noc3c2CCC[C@@]32CCCc3sc(N)c(C#N)c32)n1)[C@@H]1CCCN1C 5.85

(P) C[C@H](Oc1cc(N2C[C@@H](N(C)C)[C@@H](F)C2)nc(-c2noc3c2CCC[C@@]32CCCc3sc(N)c(C#N)c32)n1)[C@@H]1CCCN1C
(Q) C[C@H](Oc1cc(-n2ccnc2)nc(-c2noc3c2CCC[C@@]32CCCc3sc(N)c(C#N)c32)n1)[C@@H]1C[C@@H](F)CN1C
Quick one: lower pIC50, P or Q ? State your choice using its label.
Q
(Q: 5.45, P: 5.85)
